assay readout: melting point

Some compounds with known melting point results, for comparison:
> print(dat)
                                   compound       observed
1  CNC(=O)c1ccc(-c2ccc(OC)c(-c3cccc([N+](=O)[O-])c3)c2)cc1  171 to 172 °C
2  CCn1cc(-c2ccc([C@H](C)N3CC[C@](CC(C)(C)O)(c4ccc(F)cc4)OC3=O)cc2)ccc1=O  172 to 174 °C
3               O=C(C=Cc1ccc(F)cc1)N1CCOCC1  136 to 137 °C
4  Cc1nc(N2CCN(Cc3ccc(F)cc3)C2=O)sc1C(=O)NCc1ccncn1  175 to 176 °C

Items follow; give melting point for each.
1. CCN(CC)C1CCN(c2cccc(-c3cnn4c(N)c(-c5ccc(F)cc5)c(C)nc34)c2)CC1
2. CCOc1cc(=O)oc2cc(C)ccc12
3. CCOC(=O)c1cnc2c(c1)N(Cc1cc(F)ccc1F)CCN2

Out:
1. 208 to 210 °C
2. 142 to 143 °C
3. 124 to 125 °C

Items follow; give melting point for each.
1. COC1C(OC(=O)c2ccccc2)C(COC(=O)c2ccccc2)OC1n1cc([N+](=O)[O-])c(=O)[nH]c1=O (centres undefined)
2. COc1ccc2c(c1OC)Oc1cccc3cncc-2c13

Out:
1. 187 to 189 °C
2. 195 to 196 °C

* * *

Kindly supply the reported melting point values for the records listed here.

Some compounds with known melting point results, for comparison:
> print(dat)
                                   compound       observed
1  CC(C)Cc1cc(OCc2ccccc2)c2c(c1)OC(C)(C)CC2C(=O)O (stereo not given)  152 to 153 °C
2   COC1(c2ccc(C(C)C)cc2O)C(=O)c2ccccc2C1=O  272 to 274 °C

Items follow; give melting point for each.
1. COC(=O)CCC(=O)c1ccc(CCCCNC(C)=O)cc1
2. COC(=O)c1c(Oc2nc(OC)cc(OC)n2)ccc2ncccc12
3. CC(O)CCNC(=O)C1CCC(Nc2nccc(-n3ncc4ccccc43)n2)CC1 (stereo not given)

Out:
["94 to 95 °C", "160 to 162 °C", "203 to 204 °C"]

* * *

Kindly supply the reported melting point values for the records listed here.

Some molecules with known melting point results, for comparison:
> print(dat)
                                 molecule  assay.readout         observed
1          COc1cccc(Oc2ccc(NC(C)=O)cc2)c1  melting point    103 to 105 °C
2      CCCCNC(=O)NS(=O)(=O)C(C)=Cc1ccccc1  melting point    135 to 136 °C
3  CCOC(=O)C1CCNC1=O (stereo unspecified)  melting point  74.5 to 75.5 °C
4    COC(=O)CCn1ncc(-c2ccccc2)c1-c1ccccc1  melting point      72 to 74 °C
5                C=C(C)c1ccccc1S(N)(=O)=O  melting point      76 to 85 °C

In: Reported melting point, molecule Cc1ccc(S(=O)(=O)NC(Cc2ccccc2)C(=O)Nc2c(C(C)C)cccc2C(C)C)cc1 (stereo unspecified) : ____
Out: 183 to 184 °C

* * *

Kindly supply the reported melting point values for the records listed here.

> print(dat)
                  molecule       observed
1  CN(C)c1snc(OCC#CI)c1C#N  171 to 172 °C

Items follow; give melting point for each.
1. Cc1ccc(-c2nc3ccccc3nc2-c2ccc(C)cc2)cc1
2. O=[N+]([O-])c1cc(Cl)cc2c(Cl)ccnc12
3. O=S1(=O)c2cccc3cccc(c23)N1CCCN1CCN(c2ccc(F)cc2)CC1

Out:
1: 149 °C; 2: 149 to 164 °C; 3: 95 to 97 °C

Items follow; give melting point for each.
1. O=C(CN1CCNCC1)Cn1c2ccc(Br)cc2c2cc(Br)ccc21
2. OC1(CN2c3ccccc3Sc3ccccc32)CN2CCC1CC2 (centres undefined)

Out:
["175 °C", "127 to 130 °C"]

Items follow; give melting point for each.
1. Nc1ccc(-c2noc(-c3cnn4c(C(F)(F)F)cc(-c5ccc(C(F)(F)F)c(OCC(F)(F)F)c5)nc34)n2)cn1
2. C#CC[C@H](c1nc2cc(Cl)ccc2c(=O)n1Nc1ccccc1)N(CCCN1C(=O)c2ccccc2C1=O)C(=O)c1cccc(Cl)c1F
3. COc1cccc(Oc2c(NS(=O)(=O)c3ccc(C(C)(C)C)cc3)nc(C)nc2OCCO)c1
4. O=C(O)CCc1[nH]c2cc(Cl)cc(Cl)c2c1Br
5. CCOC(=O)CNC(=O)N1CCn2c(c(C(N)=O)c(Cl)c2-c2ccccc2)C1
6. O=C1Nc2ccccc2C1CCCCN1CCN(c2ccc(Cl)cc2)CC1 (centres undefined)

Out:
1: 284 °C; 2: 130 to 132 °C; 3: 139 °C; 4: 228 °C; 5: 94 to 97 °C; 6: 136 to 137 °C

Items follow; give melting point for each.
1. CC(=O)c1ccc(-c2ccc(CC(C)O)cc2)cc1 (single isomer, unassigned; (-))
2. CCNCC1(C)CN(c2c(F)cc3c(=O)c(C(=O)O)cn(C4CC4)c3c2F)C1
3. O=C(c1ccccc1)N1CCn2c(CN3CCOCC3)ccc2C1
4. COc1cc(C(=O)NS(=O)(=O)c2ccccc2C)ccc1Cc1cn(C)c2ccc(C(=O)O)cc12
5. Cc1nn(-c2ccccn2)c2nccc(O)c12
6. CC(C)=CCCC(C)=CCOc1ccc(C(=O)NCCc2ccncc2)cc1

Out:
139 to 140 °C
250 to 255 °C
101 to 102 °C
255 to 257 °C
241 to 243 °C
85.2 to 86.1 °C
